Sourced from patent US20260193293A1

target: Sushi domains (SD1/2) protein of the GABAB1a (GB1a) subunit, recombinant; test: FP competition
Sequence (Q9Z0U4 29-158): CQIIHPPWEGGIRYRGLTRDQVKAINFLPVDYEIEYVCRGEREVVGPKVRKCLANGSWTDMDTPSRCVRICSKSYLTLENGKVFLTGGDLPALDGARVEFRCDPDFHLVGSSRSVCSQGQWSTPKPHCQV
pKi: −log10 of the molar value. Starred links: 1 amine or outer side, 2 acyl side, 3 side chain; linkers in the order of their positions; H or OH if unused. Non-standard residues stand in square brackets, D forms with d. Tyr(Bzl) = Obtyr, O-benzyl-L-tyrosine, O=C([C@H](Cc1ccc(OCc2ccccc2)cc1)N[*:1])[*:2]; NMeT = CN[C@H](C(=O)O)[C@@H](C)O
MEASURE_NAME: pKi

- BINDER: "Ac-EDDS[Tyr(Bzl)]VWWGGADTD-NH2 (SMILES CC(=O)N[C@@H](CCC(=O)O)C(=O)N[C@@H](CC(=O)O)C(=O)N[C@@H](CC(=O)O)C(=O)N[C@@H](CO)C(=O)N[C@@H](Cc1ccc(OCc2ccccc2)cc1)C(=O)N[C@H](C(=O)N[C@@H](Cc1c[nH]c2ccccc12)C(=O)N[C@@H](Cc1c[nH]c2ccccc12)C(=O)NCC(=O)NCC(=O)N[C@@H](C)C(=O)N[C@@H](CC(=O)O)C(=O)N[C@H](C(=O)N[C@@H](CC(=O)O)C(N)=O)[C@@H](C)O)C(C)C) [EDDS(Obtyr)…]"
  pKi: 7.57
- BINDER: "Ac-E[NMeT]EFIAWGPTGDED-NH2 (SMILES CC[C@H](C)[C@H](NC(=O)[C@H](Cc1ccccc1)NC(=O)[C@H](CCC(=O)O)NC(=O)[C@H]([C@@H](C)O)N(C)C(=O)[C@H](CCC(=O)O)NC(C)=O)C(=O)N[C@@H](C)C(=O)N[C@@H](Cc1c[nH]c2ccccc12)C(=O)NCC(=O)N1CCC[C@H]1C(=O)N[C@H](C(=O)NCC(=O)N[C@@H](CC(=O)O)C(=O)N[C@@H](CCC(=O)O)C(=O)N[C@@H](CC(=O)O)C(N)=O)[C@@H](C)O) [E(N-Me-T)…]"
  pKi: 7.43
- BINDER: "Ac-PWAIVWGPTVS[dR]ED-NH2 […rED]"
  pKi: 6.22

[1] Ac-EEDDSDVWWGGADT-NH2
[2] Ac-TETEFIAWGPTGDE-NH2
Problem: Return label of the item with the larger pKi. Candidates: 1 , 2 . When you have decided, please share the label of that item.
Result: 2
(2: 7.16, 1: 6.23)
